meta.source: paper PMC6421704

Target: IGF1R (Homo sapiens, UniProt P08069)
Sequence (P08069 31-1367): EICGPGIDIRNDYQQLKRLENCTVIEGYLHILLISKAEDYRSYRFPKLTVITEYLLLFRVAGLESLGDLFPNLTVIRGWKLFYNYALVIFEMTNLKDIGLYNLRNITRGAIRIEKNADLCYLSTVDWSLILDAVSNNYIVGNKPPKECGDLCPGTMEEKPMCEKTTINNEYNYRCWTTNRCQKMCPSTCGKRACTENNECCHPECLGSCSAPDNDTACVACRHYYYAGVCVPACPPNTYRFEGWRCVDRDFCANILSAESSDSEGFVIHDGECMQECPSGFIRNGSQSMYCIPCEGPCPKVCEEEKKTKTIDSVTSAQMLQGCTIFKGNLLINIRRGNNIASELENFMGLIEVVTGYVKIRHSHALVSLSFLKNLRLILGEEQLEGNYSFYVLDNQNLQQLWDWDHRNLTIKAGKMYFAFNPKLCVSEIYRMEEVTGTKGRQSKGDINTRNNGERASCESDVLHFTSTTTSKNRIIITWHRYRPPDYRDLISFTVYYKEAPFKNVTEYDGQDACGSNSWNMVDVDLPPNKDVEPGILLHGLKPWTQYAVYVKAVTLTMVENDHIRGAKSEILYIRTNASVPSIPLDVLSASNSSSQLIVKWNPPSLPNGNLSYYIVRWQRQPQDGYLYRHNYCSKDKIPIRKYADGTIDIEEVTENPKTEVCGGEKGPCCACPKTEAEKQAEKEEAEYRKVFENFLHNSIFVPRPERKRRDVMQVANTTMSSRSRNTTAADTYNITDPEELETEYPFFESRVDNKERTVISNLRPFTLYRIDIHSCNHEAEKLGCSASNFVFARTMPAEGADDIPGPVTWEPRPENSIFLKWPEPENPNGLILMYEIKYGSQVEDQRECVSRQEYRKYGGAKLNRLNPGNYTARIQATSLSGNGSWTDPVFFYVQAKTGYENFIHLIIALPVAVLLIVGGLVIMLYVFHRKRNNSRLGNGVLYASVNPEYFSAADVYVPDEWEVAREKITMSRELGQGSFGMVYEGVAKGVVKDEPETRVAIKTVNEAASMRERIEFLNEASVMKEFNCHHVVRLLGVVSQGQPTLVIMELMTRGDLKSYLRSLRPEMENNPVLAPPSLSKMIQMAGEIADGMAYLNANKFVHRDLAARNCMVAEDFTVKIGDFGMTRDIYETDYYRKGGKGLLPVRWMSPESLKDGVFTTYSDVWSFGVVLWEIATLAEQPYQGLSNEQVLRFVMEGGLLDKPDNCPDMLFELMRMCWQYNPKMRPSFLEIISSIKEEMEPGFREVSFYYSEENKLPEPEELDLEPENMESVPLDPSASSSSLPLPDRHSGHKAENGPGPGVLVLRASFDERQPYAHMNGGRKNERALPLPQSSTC
MEASURED_ATTRIBUTE: IC50

Short answer for Cc1ccccc1NS(=O)(=O)c1ccc2c(c1)/C(=C/c1nc3ccccc3[nH]1)C(=O)N2 : IC50 was > 10 µM

====

Biological target: EPHA1 (Homo sapiens)
Sequence (P21709 26-976): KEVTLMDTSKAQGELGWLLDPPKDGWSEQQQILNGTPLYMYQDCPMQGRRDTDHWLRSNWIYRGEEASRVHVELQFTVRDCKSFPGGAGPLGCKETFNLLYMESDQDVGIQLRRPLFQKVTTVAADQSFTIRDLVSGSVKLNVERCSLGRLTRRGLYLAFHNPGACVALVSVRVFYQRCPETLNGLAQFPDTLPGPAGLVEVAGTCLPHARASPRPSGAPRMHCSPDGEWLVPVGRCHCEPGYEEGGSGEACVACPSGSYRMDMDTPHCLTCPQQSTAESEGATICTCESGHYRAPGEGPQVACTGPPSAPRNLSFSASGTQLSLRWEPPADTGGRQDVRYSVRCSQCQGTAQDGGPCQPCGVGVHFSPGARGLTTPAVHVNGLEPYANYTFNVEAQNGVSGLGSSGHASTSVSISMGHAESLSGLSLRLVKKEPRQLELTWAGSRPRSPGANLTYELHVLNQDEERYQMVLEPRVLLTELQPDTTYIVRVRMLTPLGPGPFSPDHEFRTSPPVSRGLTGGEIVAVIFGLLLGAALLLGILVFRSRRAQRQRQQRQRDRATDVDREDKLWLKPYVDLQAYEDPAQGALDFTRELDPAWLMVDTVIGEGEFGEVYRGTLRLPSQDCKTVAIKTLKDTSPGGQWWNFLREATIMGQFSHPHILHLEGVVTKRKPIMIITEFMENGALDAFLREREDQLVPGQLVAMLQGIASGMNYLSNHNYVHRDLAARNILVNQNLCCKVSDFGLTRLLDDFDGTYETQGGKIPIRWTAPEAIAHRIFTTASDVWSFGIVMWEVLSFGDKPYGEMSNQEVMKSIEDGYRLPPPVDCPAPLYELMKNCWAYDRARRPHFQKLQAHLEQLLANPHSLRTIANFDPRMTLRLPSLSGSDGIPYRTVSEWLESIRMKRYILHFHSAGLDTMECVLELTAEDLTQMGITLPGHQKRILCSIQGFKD
Assay: In vitro kinase activity assay (HDB Kinase Selectivity Profiling)
Assay type: biochemical
Settings: Kinase Glo Plus assay format
pIC50: −log10 of the molar value.
MEASURED_ATTRIBUTE: pIC50

pIC50 reading for Cc1ccccc1NS(=O)(=O)c1ccc2c(c1)/C(=C/c1nc3ccccc3[nH]1)C(=O)N2 : < 5.00
